A collection of compounds and their measured pIC50
# measured target: Cytochrome P450 1B1 (Homo sapiens)
# Sequence (Q16678 whole entry): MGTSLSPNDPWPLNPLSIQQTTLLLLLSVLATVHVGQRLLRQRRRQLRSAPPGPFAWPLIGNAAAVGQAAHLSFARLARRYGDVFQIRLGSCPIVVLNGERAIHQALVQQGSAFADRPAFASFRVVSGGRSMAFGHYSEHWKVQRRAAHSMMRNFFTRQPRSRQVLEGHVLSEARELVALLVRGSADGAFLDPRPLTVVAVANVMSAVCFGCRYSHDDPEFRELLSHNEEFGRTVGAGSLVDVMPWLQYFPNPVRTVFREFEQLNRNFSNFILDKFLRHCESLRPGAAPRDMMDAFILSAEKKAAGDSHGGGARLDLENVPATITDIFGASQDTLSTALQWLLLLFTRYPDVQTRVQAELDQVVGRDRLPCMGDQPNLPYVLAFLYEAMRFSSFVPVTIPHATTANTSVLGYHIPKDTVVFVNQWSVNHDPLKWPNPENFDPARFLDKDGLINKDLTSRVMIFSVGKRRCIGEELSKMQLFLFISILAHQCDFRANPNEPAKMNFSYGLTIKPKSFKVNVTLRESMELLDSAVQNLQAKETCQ
# test protocol: Inhibition of recombinant human CYP1B1 expressed in baculovirus infected insect cells using 7-ethoxyresorufin as substrate preincubated for 5 mins followed by NADPH addition and measured after 15 mins by EROD assay
pIC50: −log10 of the molar value.

Input line: Supply recorded pIC50 for [N-]=[N+]=NCCCCCCOc1cccc2c1C(=O)N(C1CCC(=O)NC1=O)C2=O (stereo not drawn) here.
Output line: < 5.00

Input line: Supply recorded pIC50 for [N-]=[N+]=NCCCCCOc1cccc2c1C(=O)N(C1CCC(=O)NC1=O)C2=O (stereo not drawn) here.
Output line: < 5.00

Input line: Supply recorded pIC50 for [N-]=[N+]=NCCCCCCCCOc1cccc2c1C(=O)N(C1CCC(=O)NC1=O)C2=O (stereo not drawn) here.
Output line: < 5.00
